# System: Rattus norvegicus
# protocolText: Effect on behavioural activity in rat assessed as cocaine-induced lever response at 25 mg/kg, po pretreated with cocaine for 180 mins by drug-discrimination studies
# Type: functional
# Activity per record follows
Kindly report the value followed by its unit.

{"columns": ["molecule", "system", "parameter", "endpointValue"],
 "data": [
  ["CCCCC(NC(C)(C)C)C(=O)c1cccc(Cl)c1 (stereo not given)", "Rattus norvegicus", "Activity", "0%"],
  ["CCCC(NC(C)(C)C)C(=O)c1ccc(Cl)c(Cl)c1 (stereo not given)", "Rattus norvegicus", "Activity", "17%"],
  ["CCC(NC(C)(C)C)C(=O)c1ccc(Cl)c(Cl)c1 (stereo not given)", "Rattus norvegicus", "Activity", "2%"]
]}

Request: Entry under review: CC(NC(C)(C)C)C(=O)c1cccc(F)c1 (stereo not given) . Reported Activity?
Result: 0%

Request: Also CC(NC(C)(C)C)C(=O)c1cccc(Cl)c1 (stereo not given) [BUPROPION] ?
Result: 22%

Request: Can you check CC(NC(C)(C)C)C(=O)c1cc(F)cc(F)c1 (stereo not given) next?
Result: 0%

Request: Similarly, CC(NC(C)(C)C)C(=O)c1cccc(Br)c1 (stereo not given) ?
Result: 0%

Request: Also CC(NC(C)(C)C)C(=O)c1ccccc1 (stereo not given) , if possible.
Result: 20%

Request: Queued: CCCCCCC(NC(C)(C)C)C(=O)c1cccc(Cl)c1 (stereo not given)
Result: 0%

Request: // next record CC(NC1CC1)C(=O)c1cccc(Cl)c1 (stereo not given)
Result: 99%

----------
# Test system: Rattus norvegicus
# protocolText: Effect on behavioural activity in rat assessed as cocaine-induced lever response at 2.5 mg/kg, ip pretreated with cocaine for 15 mins by drug-discrimination studies
# Format: functional
# studyConditions: route intraperitoneal
parameter: Activity (%)
Express the result in % but write the number alone.

Reference set (5 entries):
{"columns": ["molecule", "endpointValue"],
 "data": [
  ["CC(NC(C)(C)C)C(=O)c1ccccc1 (centres undefined)", 16],
  ["CCN(CC)C(C)C(=O)c1cccc(Cl)c1 (centres undefined)", 0],
  ["CC(NC1CC1)C(=O)c1cccc(Cl)c1 (centres undefined)", 39.5],
  ["CCCC(NC(C)(C)C)C(=O)c1cccc(Cl)c1 (centres undefined)", 0.2],
  ["CC(C)NC(C)C(=O)c1cccc(Cl)c1 (centres undefined)", 27]
]}

Request: Query Activity on Rattus norvegicus for CC(NC(C)(C)C)C(=O)c1cccc(F)c1 (centres undefined)
Result: 17.6

Request: What do we get for CC(C(=O)c1cccc(Cl)c1)N(C)C (centres undefined) ?
Result: 0

Request: Now consider CCC(NC(C)(C)C)C(=O)c1cccc(Cl)c1 (centres undefined) and answer again.
Result: 0.6

Request: CC(NC(C)(C)C)C(=O)c1cccc(Cl)c1 (centres undefined) , same question.
Result: 0.7

----------
# system: Sodium-dependent dopamine transporter (Homo sapiens, UniProt Q01959)
# Sequence (Q01959 whole entry): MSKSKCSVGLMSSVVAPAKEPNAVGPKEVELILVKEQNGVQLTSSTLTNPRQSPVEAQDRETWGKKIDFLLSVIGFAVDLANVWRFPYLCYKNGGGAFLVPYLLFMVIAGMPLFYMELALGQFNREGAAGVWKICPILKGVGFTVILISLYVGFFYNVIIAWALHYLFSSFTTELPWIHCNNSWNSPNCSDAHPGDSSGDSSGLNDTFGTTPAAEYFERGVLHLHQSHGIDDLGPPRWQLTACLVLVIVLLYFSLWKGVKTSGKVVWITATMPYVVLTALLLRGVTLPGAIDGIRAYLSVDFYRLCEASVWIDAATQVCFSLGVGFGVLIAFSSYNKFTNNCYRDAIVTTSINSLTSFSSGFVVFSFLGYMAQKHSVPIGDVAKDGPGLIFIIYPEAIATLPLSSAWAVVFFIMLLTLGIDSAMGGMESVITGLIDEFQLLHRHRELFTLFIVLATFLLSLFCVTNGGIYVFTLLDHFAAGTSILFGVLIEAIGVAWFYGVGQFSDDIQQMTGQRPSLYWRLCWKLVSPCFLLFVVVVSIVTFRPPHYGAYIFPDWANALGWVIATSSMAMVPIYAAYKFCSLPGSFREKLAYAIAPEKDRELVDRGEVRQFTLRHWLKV
pKi: −log10 of the molar value.
parameter: pKi

# example entries with known answers
{"columns": ["compound", "endpointValue"],
 "data": [
  ["Cc1ccc(C(=O)C(C)NC(C)(C)C)cc1 (stereo unspecified)", "< 5.00"],
  ["CC(NC(C)(C)C)C(O)c1ccccc1 (racemic)", "< 5.00"],
  ["CC(C)CC(NC(C)(C)C)C(=O)c1cccc(Cl)c1 (stereo unspecified)", 6.85]
]}

Request: What pKi value was documented for this compound, CC(NC(C)(C)C)C(=O)c1cc(Cl)cc(Cl)c1 (stereo unspecified) ?
Result: < 5.00

Request: # repeat for CC1C(=O)c2cc(Cl)ccc2CN1C(C)(C)C (stereo unspecified)
Result: < 5.00

Request: Continue with CC(NC(C)(C)C)C(=O)c1cccs1 (stereo unspecified)
Result: < 5.00

Request: Field entry: CC(C)(C)NC1CCc2ccc(Cl)cc2C1=O (stereo unspecified)
Result: < 5.00

Request: Input CC(NC(C)(C)C)C(=O)c1ccc(F)c(F)c1 (stereo unspecified)
Result: < 5.00

Request: Follow-up item: CC(C)(C)NC(CCC1CCCCC1)C(=O)c1cccc(Cl)c1 (stereo unspecified)
Result: 5.77

Request: Next: CC(CNC(C)(C)C)C(=O)c1cccc(Cl)c1 (stereo unspecified)
Result: < 5.00

Request: Another compound: CCCNC(C)C(=O)c1cccc(Cl)c1 (stereo unspecified)
Result: < 5.00
